- assayed.system: canine IL-4RA (construct not given) (canine)
- measurement.description: SPR, combinatorial Fab-SASA clone
observable: Kd (nM)
Answer in nM, number only, no unit symbol.

Consider the reported Kd for these binders:
[[record]]
binder = "AHF21170 (Fab, V domains shown, not shown: small tags and cut ends) VH: EVQLVESGGDLVKPGGSLRLSCVASGFTFRDYAMTWVRQAPGKGLQWVSLINGSGGKTYYADAVKGRFTISRDNAKNTLYLQMNSLRAEDTAVYYCAVDRLTKTIRPQYYGLWVWGQGTLVTVSS VL: DIVMTQTPLSLSVSPGETASISCRSSQSLTYSIGYNYLDWYLQKPGQSPQGLIYLGSKRASGVPDRFSGSGSGTDFTLRISRVEANDTGVYYCMQGLQSPLTFGQGTKLEIKR"
observed_result = 0.94

[[record]]
binder = "AHF21194 (Fab, V domains shown, not shown: small tags and cut ends) VH: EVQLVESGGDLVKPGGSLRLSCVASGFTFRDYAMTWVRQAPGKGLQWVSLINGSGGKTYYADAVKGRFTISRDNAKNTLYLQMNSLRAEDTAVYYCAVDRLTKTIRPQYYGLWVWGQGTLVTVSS VL: DIVMTQTPLSLSVSPGETASISCRSSQSLLYSIGYNYLDWYLQKPGQSPQGLIYLGSKRASGVPDRFSGSGSGTDFTLRISRVEANDTGVYYCMQGLQSPLSFGQGTKLEIKR"
observed_result = 0.627

[[record]]
binder = "AHF21172 (Fab, V domains shown, not shown: small tags and cut ends) VH: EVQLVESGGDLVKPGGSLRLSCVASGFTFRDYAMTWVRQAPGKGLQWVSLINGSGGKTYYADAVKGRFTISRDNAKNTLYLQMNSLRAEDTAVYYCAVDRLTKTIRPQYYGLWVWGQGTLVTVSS VL: DIVMTQTPLSLSVSPGETASISCRSSQSLLYSIGYNYLDWYLQKPGQSPQGLIYLGHKRASGVPDRFSGSGSGTDFTLRISRVEANDTGVYYCMQGLQSPLTFGQGTKLEIKR"
observed_result = 0.74


Query: For the binder shown here, AHF21171 (Fab, V domains shown, not shown: small tags and cut ends) VH: EVQLVESGGDLVKPGGSLRLSCVASGFTFRDYAMTWVRQAPGKGLQWVSLINGSGGKTYYADAVKGRFTISRDNAKNTLYLQMNSLRAEDTAVYYCAVDRLTKTIRPQYYGLWHWGQGTLVTVSS VL: DIVMTQTPLSLSVSPGETASISCRSSQSLLYSIGYNYLDWYLQKPGQSPQGLIYLGHKRASGVPDRFSGSGSGTDFTLRISRVEANDTGVYYCMQGLQSPLSFGQGTKLEIKR , give the reported Kd.
Response: 0.47
